- target_system: hCCR2b (Homo sapiens)
- assay_text: CCR2 binding assay ([125I]MCP-1, SPA, CHO cell membranes)
- Set-up: expressed in transfected cells; host or cells: CHO cells (membrane preparation)
- condition: membranes from CHO cells expressing hCCR2b, 50 pM [125I]MCP-1; read-out: Binding hCCR2 (Ki)
parameter: Ki

Specify Ki for CCN1CCC2(CC1)OC(=O)C(C)=C2C(=O)N1CCN(c2cc(Cl)cc(C(F)(F)F)c2)CC1 [Compound 86] and stop.
< 50 nM

----------
- target_system: hCCR2b (Homo sapiens, UniProt P41597)
- Sequence (P41597 1-360 isoform P41597-2): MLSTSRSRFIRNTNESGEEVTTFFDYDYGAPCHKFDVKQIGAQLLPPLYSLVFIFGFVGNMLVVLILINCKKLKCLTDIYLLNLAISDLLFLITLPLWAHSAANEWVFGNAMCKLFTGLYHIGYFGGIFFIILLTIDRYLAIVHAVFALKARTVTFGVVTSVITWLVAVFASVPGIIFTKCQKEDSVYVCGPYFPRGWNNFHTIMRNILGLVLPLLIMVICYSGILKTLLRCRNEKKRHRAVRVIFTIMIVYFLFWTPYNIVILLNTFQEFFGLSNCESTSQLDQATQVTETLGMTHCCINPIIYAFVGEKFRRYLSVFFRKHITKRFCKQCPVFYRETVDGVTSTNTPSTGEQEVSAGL
- assay_text: CCR2 binding assay ([125I]MCP-1, SPA, CHO cell membranes)
- Design: expressed in transfected cells; host or cells: CHO cells (membrane preparation)
- condition: membranes from CHO cells expressing hCCR2b, 50 pM [125I]MCP-1; read-out: Binding hCCR2 (Ki)
Where a name gives a salt, the structure may show the parent alone.
Some molecules, each annotated with its measured Ki.

Field: example entries. Status: answers known.
1) CC1=C(C(=O)N2CCc3ccc(C(F)(F)F)cc3C2)C2(CCN(C(C)C)CC2)OC1=O | < 0.05 µM
2) CC1=C(C(=O)N2CCc3ncc(C(F)(F)F)cc3C2)C2(CCN(C3CCC(O)CC3)CC2)OC1=O (stereo not drawn) | < 0.05 µM
3) COc1cccc(CCN2CCC3(CC2)OC(=O)C(C)=C3C(=O)N2CCN(c3cccc(C(F)(F)F)c3)CC2)c1 [Compound 8, dihydrochloride salt] | < 0.05 µM
4) CCN1CCC2(CC1)OC(=O)C(C)=C2C(=O)N1CCN(c2cccc(OC(F)(F)F)c2)CC1 | < 0.05 µM
5) CC1=C(C(=O)N2CCc3ccc(C(F)(F)F)cc3C2)C2(CCN(CC3CCOC3)CC2)OC1=O (stereo not drawn) | < 0.05 µM
6) CC1=C(C(=O)N2CCc3ccc(C(F)(F)F)cc3C2)C2(CCN(C3CCC(O)CC3)CC2)OC1=O (stereo not drawn) | < 0.05 µM

Specify Ki for CCN1CCC2(C1)OC(=O)C(C)=C2C(=O)N1CCN(c2cccc(C(F)(F)F)c2)CC1 (stereo not drawn) and stop.
0.05 to 0.1 µM

Specify Ki for COCCN1CCC2(CC1)OC(=O)C(C)=C2C(=O)N1CCc2ccc(C(F)(F)F)cc2C1 and stop.
< 0.05 µM

Specify Ki for CCN1CCC2(CC1)OC(=O)C(C)=C2C(=O)N1CCN(c2ccc(OC(F)(F)F)cc2)CC1 and stop.
0.1 to 0.5 µM
